- test_target: Glutamate NMDA receptor
- assay_explanation: Displacement of [3H]CGP39653 from NMDA receptor in rat cortical synaptic membranes
# Ki listing for each entry below

{"compound": "CCN1N=C(O)C[C@@H]1[C@H](N)C(=O)O (racemic)", "test_target": "Glutamate NMDA receptor", "Ki": "> 100 µM"}
{"compound": "N[C@H](C(=O)O)[C@@H]1CC(O)=NN1Cc1ccc(C(=O)O)cc1 (racemic)", "test_target": "Glutamate NMDA receptor", "Ki": "> 100 µM"}
{"compound": "N[C@H](C(=O)O)[C@H]1CC(O)=NN1Cc1ccc2ccccc2c1 (racemic)", "test_target": "Glutamate NMDA receptor", "Ki": "> 100 µM"}
{"compound": "N[C@H](C(=O)O)[C@H]1CC(O)=NN1Cc1cccc(C(=O)O)c1 (racemic)", "test_target": "Glutamate NMDA receptor", "Ki": "> 100 µM"}
{"compound": "CCN1N=C(O)C[C@H]1[C@H](N)C(=O)O (racemic)", "test_target": "Glutamate NMDA receptor", "Ki": "> 100 µM"}
{"compound": "N[C@H](C(=O)O)[C@@H]1CC(O)=NN1Cc1cccc(C(=O)O)c1 (racemic)", "test_target": "Glutamate NMDA receptor", "Ki": "> 100 µM"}
{"compound": "N[C@H](C(=O)O)[C@@H]1CC(O)=NN1Cc1ccc(-c2ccccc2)cc1 (racemic)", "test_target": "Glutamate NMDA receptor", "Ki": "> 100 µM"}

For the next question, use this compound.
Name the reported Ki value associated with the compound N[C@H](C(=O)O)[C@H]1CC(O)=NN1Cc1ccccc1 (racemic)
> 100 µM
